target: human inducible NO-synthase (Homo sapiens, UniProt P35228); test: Measurement of inducible NO-synthase activity ([3H]arginine conversion); assay type: biochemical; settings: crude cytosolic fraction containing human inducible NO-synthase; arginine 0.1 μM; 45 to 60 min at 37° C.
The entries below come with measured Inhibition of iNOS activity [measured as −logIC50 (mol/l)] values attached.
No unit in the answer, please; the number alone is enough.

Take a look at these entries with their results.
[[record]]
compound = "COc1ccnc(CCc2nc3cc(-c4ccc(Br)cc4)cnc3[nH]2)c1 [compound 16]"
result = 7.36

[[record]]
compound = "COc1ccnc(CCc2nc3cc(-c4ccc(C(F)(F)F)cc4)cnc3[nH]2)c1 [compound 30]"
result = 7.55


Bench note, human inducible NO-synthase (Homo sapiens, UniProt P35228): entry COc1ccnc(CCc2nc3cc(-c4ccc(Cl)c(Cl)c4)cnc3[nH]2)c1 [compound 15] , its Inhibition of iNOS activity [measured as −logIC50 (mol/l)] = 7.33

Log: human inducible NO-synthase (Homo sapiens, UniProt P35228), compound COc1ccnc(CCc2nc3cc(-c4ccc(OCc5ccccc5)c(F)c4)cnc3[nH]2)c1 [compound 33] , Inhibition of iNOS activity [measured as −logIC50 (mol/l)] = 7.29

###

Each entry below carries its reported IC50.
molecular target: human inducible NO-synthase (Homo sapiens); test: Measurement of inducible NO-synthase activity ([3H]arginine conversion); type: biochemical; conditions: crude cytosolic fraction containing human inducible NO-synthase; arginine 0.1 μM; 45 to 60 min at 37° C.; read-out: Inhibition of iNOS activity [measured as −logIC50 (mol/l)] (converted)
Please state the figure in nM; there is no need to write the unit.

[[record]]
compound_smiles = "COc1ccnc(CCc2nc3cc(-c4cccnc4)cnc3[nH]2)c1"
measured_metric = "IC50"
result = 89.1

[[record]]
compound_smiles = "COc1ccnc(CCc2nc3cc(-c4ccc(C#N)cc4)cnc3[nH]2)c1"
measured_metric = "IC50"
result = 33.9

[[record]]
compound_smiles = "COc1ccnc(CCc2nc3cc(-c4ccc(O)cc4)cnc3[nH]2)c1"
measured_metric = "IC50"
result = 44.7


So for COc1ccnc(CCc2nc3cc(-c4ccc(OCc5ccccc5)cc4)cnc3[nH]2)c1 , the logged IC50 turned out to be 45.7

The reported IC50 of the compound COc1ccnc(CCc2nc3cc(-c4ccc(N(C)C)cc4)cnc3[nH]2)c1 was 38

For reference, reported IC50 for COc1ccnc(CCc2nc3cc(-c4ccc(NS(=O)(=O)c5ccccc5)cc4)cnc3[nH]2)c1 stands at 63.1

###

The compounds listed here are annotated with their melting point.

Illustrative cases are given below, each with its answer.
[[record]]
compound_smiles = "COc1ccnc(CCc2nc3cc(-c4ccc(O)cc4)cnc3[nH]2)c1"
result = "206 to 208 °C"

[[record]]
compound_smiles = "COc1ccnc(CCc2nc3cc(-c4ccc(OC)c(OC)c4)cnc3[nH]2)c1"
result = "185 to 186 °C"

[[record]]
compound_smiles = "COc1ccnc(CCc2nc3cc(-c4ccc(OCc5ccccc5)cc4)cnc3[nH]2)c1"
result = "161 to 162 °C"

[[record]]
compound_smiles = "COc1ccnc(CCc2nc3cc(-c4ccc(NC(C)=O)cc4)cnc3[nH]2)c1"
result = "220 to 221 °C"

[[record]]
compound_smiles = "COc1ccnc(CCc2nc3cc(-c4ccc(N)cc4)cnc3[nH]2)c1"
result = "117 to 119 °C"


Data point: COc1ccnc(CCc2nc3cc(-c4ccc(N(C)C)cc4)cnc3[nH]2)c1 ; melting point = 176 to 178 °C

Entry under test: COc1ccnc(CCc2nc3cc(-c4ccc(C#N)cc4)cnc3[nH]2)c1 . Its melting point was 241 to 242 °C

Briefly, melting point measured for COc1ccnc(CCc2nc3cc(-c4ccc(NS(=O)(=O)c5ccccc5)cc4)cnc3[nH]2)c1 : 251 to 253 °C

###

Item-by-item account of IC50
target: human inducible NO-synthase (Homo sapiens); assay: Measurement of inducible NO-synthase activity ([3H]arginine conversion); format: biochemical; details: crude cytosolic fraction containing human inducible NO-synthase; arginine 0.1 μM; 45 to 60 min at 37° C.; read-out: Inhibition of iNOS activity [measured as −logIC50 (mol/l)] (converted)
Lab book: enter the figure in nM, no units written.

[[record]]
compound_smiles = "COc1ccnc(CCc2nc3cc(C)cnc3[nH]2)c1"
measured_metric = "IC50"
unit_label = "nM"
result = 69.2

[[record]]
compound_smiles = "COc1ccnc(CCc2nc3cc(-c4ccccc4)cnc3[nH]2)c1"
measured_metric = "IC50"
unit_label = "nM"
result = 38.9

[[record]]
compound_smiles = "COc1ccnc(CCc2nc3cc(-c4ccc(C)cc4)cnc3[nH]2)c1"
measured_metric = "IC50"
unit_label = "nM"
result = 34.7

[[record]]
compound_smiles = "COc1ccnc(CCc2nc3cc(CCc4ccccc4)cnc3[nH]2)c1"
measured_metric = "IC50"
unit_label = "nM"
result = 45.7

[[record]]
compound_smiles = "COc1ccnc(CCc2nc3cc(-c4ccc(OC)c(OC)c4)cnc3[nH]2)c1"
measured_metric = "IC50"
unit_label = "nM"
result = 75.9

[[record]]
compound_smiles = "COc1ccnc(CCc2nc3cc(-c4ccc(NC(C)=O)cc4)cnc3[nH]2)c1"
measured_metric = "IC50"
unit_label = "nM"
result = 67.6

[[record]]
compound_smiles = "COc1ccnc(CCc2nc3cc(C(F)(F)F)cnc3[nH]2)c1"
measured_metric = "IC50"
unit_label = "nM"
result = 89.1

[[record]]
compound_smiles = "COc1ccnc(CCc2nc3cc(I)cnc3[nH]2)c1"
measured_metric = "IC50"
unit_label = "nM"
result = 32.4


get_value(item= COc1ccnc(CCc2nc3cc(-c4ccc(N)cc4)cnc3[nH]2)c1 , readout=IC50) returns 61.7
